Recorded values, source patent US8933015B2.

Test system: human hepatoma Huh-7 cell line harboring a HCV replicon
Experiment: HCV replicon assay (inhibition of viral replication, luciferase)
Assay type: cell-based
Details: Hepatitis C virus, Huh-7, 72 h
Consider the following molecules and their measured EC50 readings.

CO[C@@H]1CC/C=C/C2=CC=C(COC(=O)[C@@H]3CCCN(N3)C(=O)[C@H](Cc3cccc(O)c3)NC(=O)[C@H](C(C)C)NC(=O)[C@@H]1C)S2 :: 10100 to 100000 nM

Name the recorded EC50 of the item CCO[C@@H]1CC/C=C/c2cccc(c2)COC(=O)[C@@H]2CCCN(N2)C(=O)[C@H](Cc2cccc(O)c2)NC(=O)[C@H](C(C)C)NC(=O)[C@@H]1C in your answer.
< 1000 nM

Name the recorded EC50 of the item CO[C@@H]1CC/C=C/C=C/CCOC(=O)[C@@H]2CCCN(N2)C(=O)[C@H](Cc2cccc(O)c2)NC(=O)[C@H](C(C)C)NC(=O)[C@@H]1C in your answer.
< 1000 nM

Name the recorded EC50 of the item CO[C@@H]1[C@@H](C)[C@@H](OC)CCc2cccc(c2)CNC(=O)[C@@H]2CCCN(N2)C(=O)[C@H](Cc2cccc(O)c2)NC(=O)[C@H](C(C)C)NC(=O)[C@@H]1C in your answer.
1100 to 10000 nM

Name the recorded EC50 of the item CO[C@@H]1CC/C=C/c2ccnc(c2)COC(=O)[C@@H]2CCCN(N2)C(=O)[C@H](Cc2cccc(O)c2)NC(=O)[C@H](C(C)C)NC(=O)[C@@H]1C in your answer.
< 1000 nM

Name the recorded EC50 of the item CO[C@@H]1CC/C=C/c2cc(ccn2)COC(=O)[C@@H]2CCCN(N2)C(=O)[C@H](Cc2cccc(O)c2)NC(=O)[C@H](C(C)C)NC(=O)[C@@H]1C in your answer.
< 1000 nM

Name the recorded EC50 of the item CO[C@@H]1CC/C=C/CCCCOC(=O)[C@@H]2CCCN(N2)C(=O)[C@H](Cc2cccc(O)c2)NC(=O)[C@H](C(C)C)NC(=O)[C@@H]1C in your answer.
< 1000 nM

Name the recorded EC50 of the item CC(C)[C@@H]1NC(=O)[C@H](C)[C@H](O)c2ccc(cc2)CCCCOC(=O)[C@@H]2CCCN(N2)C(=O)[C@H](Cc2cccc(O)c2)NC1=O in your answer.
10100 to 100000 nM

Name the recorded EC50 of the item CO[C@@H]1[C@@H](C)[C@@H](OC)/C=C/C=C/C[C@@H](C)OC(=O)[C@@H]2CCCN(N2)C(=O)[C@H](Cc2cccc(O)c2)NC(=O)[C@H](C(C)C)NC(=O)[C@@H]1C in your answer.
< 1000 nM

Name the recorded EC50 of the item CO[C@@H]1CC/C=C/c2ccc3c(c2)[C@@H](CC3)OC(=O)[C@@H]2CCCN(N2)C(=O)[C@H](Cc2cccc(O)c2)NC(=O)[C@H](C(C)C)NC(=O)[C@@H]1C in your answer.
< 1000 nM

Name the recorded EC50 of the item CO[C@@H]1CC/C=C/c2cccc(c2)[C@@H](C)OC(=O)[C@@H]2CCCN(N2)C(=O)[C@H](Cc2cccc(O)c2)NC(=O)[C@H](C(C)C)NC(=O)C1 in your answer.
< 1000 nM

Name the recorded EC50 of the item CO[C@@H]1CC/C=C/c2cccc(c2)[C@@H](C)NC(=O)[C@@H]2CCCN(N2)C(=O)[C@H](Cc2cccc(O)c2)NC(=O)[C@H](C(C)C)NC(=O)[C@@H]1C in your answer.
< 1000 nM

Name the recorded EC50 of the item CO[C@@H]1[C@@H](C)[C@@H](OC)/C=C/c2cccc(c2)COC(=O)[C@@H]2CCCN(N2)C(=O)[C@H](Cc2cccc(O)c2)NC(=O)[C@H](C(C)C)NC(=O)[C@@H]1C in your answer.
< 1000 nM

Name the recorded EC50 of the item CO[C@@H]1[C@@H](C)[C@@H](OC)/C=C/C=C/CCOC(=O)[C@@H]2CCCN(N2)C(=O)[C@H](Cc2cccc(O)c2)NC(=O)[C@H](C(C)C)NC(=O)[C@@H]1C in your answer.
< 1000 nM

Name the recorded EC50 of the item CO[C@@H]1CCCCc2cccc(c2)[C@@H](C)OC(=O)[C@@H]2CCCN(N2)C(=O)[C@H](Cc2cccc(O)c2)NC(=O)[C@H](C(C)C)NC(=O)[C@@H]1C in your answer.
< 1000 nM

Name the recorded EC50 of the item CO[C@@H]1CC/C=C/c2cccc(c2)[C@@H](C)OC(=O)[C@@H]2CCCN(N2)C(=O)[C@H](Cc2cccc(O)c2)NC(=O)[C@H](C(C)C)NC(=O)[C@@H]1C in your answer.
< 1000 nM

Name the recorded EC50 of the item COc1ccc(C[C@@H]2NC(=O)[C@H](C)[C@H](OC)[C@@H](C)[C@@H](OC)/C=C/C=C/CCOC(=O)[C@@H]3CCCN(N3)C(=O)[C@H](Cc3cccc(O)c3)NC2=O)cc1 in your answer.
1100 to 10000 nM

Name the recorded EC50 of the item CO[C@@H]1[C@@H](C)[C@@H](OC)/C=C/C=C/CCNC(=O)[C@@H]2CCCN(N2)C(=O)[C@H](Cc2cccc(O)c2)NC(=O)[C@H](C(C)C)NC(=O)[C@@H]1C in your answer.
1100 to 10000 nM
